# STUDY TARGET: ATP-binding cassette sub-family C member 9 (Rattus norvegicus)
# PROTOCOL TEXT: Binding affinity to the sulfonylurea receptor 2A (SUR2A) in purified membranes of rat-heart myocytes
# Type: cell membranes
Classification field: enter criterion met for pKD values not below 7, criterion not met for values below it.

Some solved entries appear below for comparison.
Kindly determine if pKD recorded for `CC1(C)C=C(n2ccccc2=O)c2cc(S(=O)(=O)NC(=O)NC3CCCCC3)ccc2O1` is above or exactly 7. criterion not met

Again, but for `CC(C)NS(=O)(=O)c1ccc2c(c1)C(n1ccccc1=O)=CC(C)(C)O2` criterion not met

Again, but for `CC1(C)C=C(n2ccccc2=O)c2cc(S(=O)(=O)NCCO)ccc2O1` criterion not met

Again, but for CC1(C)C=C(n2ccccc2=O)c2cc(C#N)ccc2O1 [BIMAKALIM] criterion met

Again, but for `CC1(C)C=C(n2ccccc2=O)c2cc(S(=O)(=O)F)ccc2O1` criterion met

More entries:
Kindly determine if pKD recorded for `CC1(C)C=C(n2ccccc2=O)c2cc(S(=O)(=O)Oc3ccccc3)ccc2O1` is above or exactly 7. criterion met

Again, but for `CC1(C)C=C(n2ccccc2=O)c2cc(S(=O)(=O)Nc3ccccc3F)ccc2O1` criterion met

====

# Species on record: Rattus norvegicus
# PROTOCOL TEXT: Maximum level of relaxation of aortic rings measured as percentage of basal tension.
# Assay type: functional
# SETTINGS: Aorta
OBSERVABLE: Emax (%)
Number only, in %; omit the unit.

Consider the following illustrative entries.
Which Emax value belongs to `CN(c1ccccc1)S(=O)(=O)c1ccc2c(c1)C(n1ccccc1=O)=CC(C)(C)O2` ? 64.2

Again, but for `[2H]c1c([2H])c([2H])c(NS(=O)(=O)c2ccc3c(c2)C(n2ccccc2=O)=CC(C)(C)O3)c([2H])c1[2H]` 82.5

Again, but for `CC1(C)C=C(n2ccccc2=O)c2cc(S(=O)(=O)Nc3ccccc3)ccc2O1` 63.6

Again, but for `CC1(C)C=C(n2ccccc2=O)c2cc(S(=O)(=O)NC(=O)Nc3ccccc3)ccc2O1` 90.8

More entries:
Which Emax value belongs to `CC1(C)C=C(n2ccccc2=O)c2cc(S(=O)(=O)NCCO)ccc2O1` ? 95.5

Again, but for `CC1(C)C=C(n2ccccc2=O)c2cc(S(=O)(=O)c3ccccc3)ccc2O1` 79.3

Again, but for `CC1(C)C=C(n2ccccc2=O)c2cc(S(=O)(=O)F)ccc2O1` 84.4

====

# STUDY TARGET: UniProtKB Q63563
# Sequence (Q63563 whole entry): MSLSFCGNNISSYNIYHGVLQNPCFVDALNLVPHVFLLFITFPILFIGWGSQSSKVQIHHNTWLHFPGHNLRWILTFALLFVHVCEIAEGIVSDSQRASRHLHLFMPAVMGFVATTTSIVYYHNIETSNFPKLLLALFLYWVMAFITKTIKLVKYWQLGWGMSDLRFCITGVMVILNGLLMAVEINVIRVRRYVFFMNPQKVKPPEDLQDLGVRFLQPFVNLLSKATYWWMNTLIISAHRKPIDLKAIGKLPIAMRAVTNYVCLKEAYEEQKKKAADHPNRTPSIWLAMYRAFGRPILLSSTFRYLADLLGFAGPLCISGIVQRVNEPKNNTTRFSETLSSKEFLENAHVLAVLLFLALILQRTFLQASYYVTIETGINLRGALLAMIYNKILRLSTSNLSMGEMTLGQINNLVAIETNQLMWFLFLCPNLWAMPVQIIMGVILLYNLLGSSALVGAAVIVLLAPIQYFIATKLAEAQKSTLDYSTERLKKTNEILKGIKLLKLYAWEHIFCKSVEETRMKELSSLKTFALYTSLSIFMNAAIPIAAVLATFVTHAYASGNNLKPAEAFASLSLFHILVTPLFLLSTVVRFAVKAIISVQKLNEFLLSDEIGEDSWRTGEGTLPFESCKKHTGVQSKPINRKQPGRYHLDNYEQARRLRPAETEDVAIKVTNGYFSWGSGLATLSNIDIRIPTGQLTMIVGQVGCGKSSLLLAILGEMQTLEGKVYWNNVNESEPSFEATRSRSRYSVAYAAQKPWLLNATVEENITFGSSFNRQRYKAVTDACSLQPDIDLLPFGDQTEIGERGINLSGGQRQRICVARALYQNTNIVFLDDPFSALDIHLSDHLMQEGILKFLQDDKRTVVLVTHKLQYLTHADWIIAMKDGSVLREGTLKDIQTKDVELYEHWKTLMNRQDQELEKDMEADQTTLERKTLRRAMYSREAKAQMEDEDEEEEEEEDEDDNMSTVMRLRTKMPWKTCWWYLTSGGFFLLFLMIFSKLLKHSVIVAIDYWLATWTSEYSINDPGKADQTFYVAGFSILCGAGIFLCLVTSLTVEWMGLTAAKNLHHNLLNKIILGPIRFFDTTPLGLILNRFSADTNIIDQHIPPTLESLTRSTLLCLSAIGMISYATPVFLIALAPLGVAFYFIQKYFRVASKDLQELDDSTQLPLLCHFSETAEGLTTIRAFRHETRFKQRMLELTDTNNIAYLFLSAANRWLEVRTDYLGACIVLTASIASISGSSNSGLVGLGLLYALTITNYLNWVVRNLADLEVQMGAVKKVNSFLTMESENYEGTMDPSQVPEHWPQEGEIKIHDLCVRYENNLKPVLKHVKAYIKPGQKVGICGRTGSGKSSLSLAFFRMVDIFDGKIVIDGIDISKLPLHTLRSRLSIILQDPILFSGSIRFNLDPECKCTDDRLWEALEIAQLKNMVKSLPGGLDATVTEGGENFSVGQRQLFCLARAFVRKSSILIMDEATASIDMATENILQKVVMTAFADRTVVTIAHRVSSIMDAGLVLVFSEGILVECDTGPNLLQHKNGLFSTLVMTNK
# PROTOCOL TEXT: Binding affinity towards Sulfonylurea receptor 2B (SUR2B) in cultured rat aortic smooth muscle cells (SMC)
OBSERVABLE: pKD
The answer should be written as a number, with no unit following it.

Consider the following illustrative entries.
Which pKD value belongs to `CN(C)S(=O)(=O)c1ccc2c(c1)C(n1ccccc1=O)=CC(C)(C)O2` ? 7.2

Again, but for `CC1(C)C=C(n2ccccc2=O)c2cc(S(N)(=O)=O)ccc2O1` 6.94

More entries:
Which pKD value belongs to `CCN(CC)S(=O)(=O)c1ccc2c(c1)C(n1ccccc1=O)=CC(C)(C)O2` ? 6.94

Again, but for `CC1(C)C=C(n2ccccc2=O)c2cc(S(=O)(=O)c3ccccc3)ccc2O1` 7.19

====

# STUDY TARGET: ATP-binding cassette sub-family C member 9 (Rattus norvegicus)
# PROTOCOL TEXT: Binding affinity to the sulfonylurea receptor 2A (SUR2A) in purified membranes of rat-heart myocytes
# Type: cell membranes
Classification field: enter condition met for pKD values not below 7, condition not met for values below it.

Kindly determine if pKD recorded for `CC1(C)C=C(n2ccccc2=O)c2cc(S(=O)(=O)Nc3ccccc3)ccc2O1` is above or exactly 7. condition met

Again, but for `CC1(C)Oc2ccc(S(=O)(=O)c3ccccc3)cc2[C@@H](N2CCCC2=O)[C@@H]1O` condition met

Again, but for `CC1(C)C=C(n2ccccc2=O)c2cc(S(=O)(=O)Nc3ccc(Br)cc3)ccc2O1` condition not met

Again, but for `CC1(C)C=C(n2ccccc2=O)c2cc(S(=O)(=O)N=[N+]=[N-])ccc2O1` condition met

Again, but for `CC1(C)C=C(n2ccccc2=O)c2cc(S(N)(=O)=O)ccc2O1` condition not met

Again, but for `CC1(C)C=C(n2ccccc2=O)c2cc(S(=O)(=O)NCc3ccccc3)ccc2O1` condition not met

Again, but for `CC1(C)C=C(n2ccccc2=O)c2cc(S(=O)(=O)NC(=O)Nc3ccccc3)ccc2O1` condition not met

Again, but for `CC1(C)C=C(n2ccccc2=O)c2cc(S(=O)(=O)N3CCOCC3)ccc2O1` condition not met

More entries:
Kindly determine if pKD recorded for `CC1(C)C=C(n2ccccc2=O)c2cc(S(=O)(=O)Nc3ccc([N+](=O)[O-])cc3)ccc2O1` is above or exactly 7. condition not met

Again, but for `COc1ccc(NS(=O)(=O)c2ccc3c(c2)C(n2ccccc2=O)=CC(C)(C)O3)cc1` condition not met

Again, but for `CCNS(=O)(=O)c1ccc2c(c1)C(n1ccccc1=O)=CC(C)(C)O2` condition not met

Again, but for `CN(c1ccccc1)S(=O)(=O)c1ccc2c(c1)C(n1ccccc1=O)=CC(C)(C)O2` condition met

Again, but for `CCN(CC)S(=O)(=O)c1ccc2c(c1)C(n1ccccc1=O)=CC(C)(C)O2` condition not met

Again, but for `CC1(C)C=C(n2ccccc2=O)c2cc(S(=O)(=O)NC3CCCC3)ccc2O1` condition not met

Again, but for `CC1(C)C=C(n2ccccc2=O)c2cc(S(=O)(=O)Nc3ccc(C#N)cc3)ccc2O1` condition not met

====

Recorded pKD, one value per entry.
# STUDY TARGET: UniProt Q63563
# PROTOCOL TEXT: Binding affinity to the sulfonylurea receptor 2A (SUR2A) in purified membranes of rat-heart myocytes
# Type: cell membranes
The answer should be written as a number, with no unit following it.

Consider the following illustrative entries.
Which pKD value belongs to `CC1(C)C=C(n2ccccc2=O)c2cc(S(=O)(=O)c3ccccc3)ccc2O1` ? 6.86

Again, but for `CC1(C)C=C(n2ccccc2=O)c2cc(S(=O)(=O)Nc3ccccc3Br)ccc2O1` 6.86

Again, but for `CNS(=O)(=O)c1ccc2c(c1)C(n1ccccc1=O)=CC(C)(C)O2` 7.18

More entries:
Which pKD value belongs to `CN(C)S(=O)(=O)c1ccc2c(c1)C(n1ccccc1=O)=CC(C)(C)O2` ? 6.91
